Can you tell me pIC50 for the items I'm about to list?
- testedOn: Programmed cell death protein 1/Programmed cell death 1 ligand 1 (Homo sapiens)
- Sequence (Q15116 whole entry): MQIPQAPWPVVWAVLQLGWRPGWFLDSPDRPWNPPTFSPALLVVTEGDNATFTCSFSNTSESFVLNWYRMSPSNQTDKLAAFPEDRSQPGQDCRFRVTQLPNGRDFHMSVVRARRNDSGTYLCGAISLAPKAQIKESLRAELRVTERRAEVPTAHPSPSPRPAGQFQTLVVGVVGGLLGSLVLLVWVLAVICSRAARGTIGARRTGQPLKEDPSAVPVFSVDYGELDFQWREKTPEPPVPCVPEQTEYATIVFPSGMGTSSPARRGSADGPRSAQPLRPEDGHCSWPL
- Sequence (Q9NZQ7 whole entry): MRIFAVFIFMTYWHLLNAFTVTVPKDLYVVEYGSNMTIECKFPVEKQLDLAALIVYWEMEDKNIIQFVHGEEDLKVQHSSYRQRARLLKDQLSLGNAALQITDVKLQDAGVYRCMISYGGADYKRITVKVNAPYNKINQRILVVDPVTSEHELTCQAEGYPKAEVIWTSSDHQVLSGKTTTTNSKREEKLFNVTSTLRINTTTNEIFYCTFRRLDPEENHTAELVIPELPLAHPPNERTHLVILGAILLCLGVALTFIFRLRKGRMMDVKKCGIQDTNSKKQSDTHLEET
- assayProcedure: Inhibition of human PD-1 to PD-L1 protein-protein interaction by homogeneous-time resolved fluorescence assay
One number for each entry, as −log10 of the molar value.

The cases that follow already have their pIC50 on record.
N#Cc1cncc(COc2cc(OCc3cccc(-c4ccc5c(c4)OCCO5)c3C(F)F)ccc2CN2CCC[C@H]2C(=O)O)c1 :: 7.71
N#Cc1cncc(COc2cc(OCc3cccc(-c4ccccc4F)c3C(F)F)ccc2CNCC(=O)O)c1 :: 6.81
N#Cc1cncc(COc2cc(OCc3cccc(-c4ccccc4F)c3CF)ccc2CNCC(=O)O)c1 :: 7.55
N#Cc1cccc(COc2cc(OCc3cccc(-c4ccccc4F)c3CF)ccc2CN2CCC[C@H]2C(=O)O)c1 :: 8.00

Here is the next item to consider.
The reported pIC50 value, Programmed cell death protein 1/Programmed cell death 1 ligand 1 (Homo sapiens), for `CC(=O)NCCNCc1ccc(OCc2cccc(-c3ccccc3F)c2C(F)F)cc1OCc1cncc(C#N)c1` reads 7.00

Hello, the source for this data is ChEMBL document CHEMBL5608200, in case you need it.
